TARGET ENTITY: T1, ALKTG-EGFL (human ALK amino acids 648-1025) (human, UniProt Q9UM73 648-1025, N-linked glycans; EndoH-trimmed (deglycosylated) for crystals and SEC-MALLS)
T1 construct: The C-terminal Fc-His6 tag was removed by caspase 3; also called ALK (in BLI, SEC-MALLS and ITC)
T1 sequence (Q9UM73 648-1025): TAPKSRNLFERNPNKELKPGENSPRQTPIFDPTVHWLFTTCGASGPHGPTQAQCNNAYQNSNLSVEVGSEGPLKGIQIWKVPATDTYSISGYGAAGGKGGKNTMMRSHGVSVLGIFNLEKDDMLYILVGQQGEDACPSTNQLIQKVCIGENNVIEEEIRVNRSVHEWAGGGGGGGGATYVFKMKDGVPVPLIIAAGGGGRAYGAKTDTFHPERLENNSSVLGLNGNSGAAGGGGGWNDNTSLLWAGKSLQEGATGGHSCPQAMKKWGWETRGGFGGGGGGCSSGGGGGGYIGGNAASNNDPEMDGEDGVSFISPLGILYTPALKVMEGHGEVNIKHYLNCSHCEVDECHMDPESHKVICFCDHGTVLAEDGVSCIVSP
EXPERIMENT: BLI, biotinylated ALKAL2 F97E on streptavidin biosensors, ALKTG-EGFL in solution
MEASUREMENT KIND: Kd (nM)
Form entry: value (nM) — number only.

State, in one line, measured Kd of ALKAL2^F97E (residues 78-152) (ligand, human, UniProt Q6UX46 78-152, looked up, range 78-152; Avi-tagged and biotinylated in BLI; used as purified protein in SEC-MALLS and Ba/F3 assays; also called ALKAL2 site 2 mutant F97E) PSPEQRVEIVPRDLRMKDKELKHLTGPLYFSPKCSKHFHRLYHNTRDCTIPAYYKRCARLLTRLAVSPVCMEDKQ 200
